biological target: T1, MMP-26 (human); assay: cell-based or functional assay
T1 sequence: ASDF
measure: % Inhibition of JEG-3 cell invasion, 50 µg/ml (further test) (%)
Answer with a number only, understood to be in %.

binder: B10 (antibody, human IgG4, V domains shown) VH: EVQLLESGGGLVQPGGSLRLSCAASGFTFSSYAMMWVRQAPGKGLEWVSWIVPSGGTTFYADSVKGRFTISRDNSKNTLYLQMNSLRAEDTAVYYCARGLYRWGQGTLVTVSSASTKGPSVFP VL: DIQMTQSPSSLSASVGDRVTIACRTSQNVNRYLNWYQHKLGQAPKLLIYGATILQSGVPSRFRGSGSGTDFILTITNLQPEDFAVYYCQQTYSPPLTFGQGTKAEFKGTVAAPSV
quantitativeResult: 22
--
binder: A1-orig (antibody, human IgG4, V domains shown) VH: EVQLLESGGGLVQPGGSLRLSCAASGFTFSYYRMSWVRQAPGKGLEWVSSIGPSGGDTLYADSVKGRFTISRDNSKNTLYLQMNSLRAEDTAVYYCARSFSSGPYYFDYWGQGTLVTVSS VL: QSVLTQPPSASGTPGQRVIISCSGSSSNIGSHYVHWYQQVPGTAPKLLIYRNGQRPSGVPDRFSGFKSGTSASLAISGLRSEDEANYYCATWDDSVLFGGGTTLTVLG
quantitativeResult: 74
--
binder: C12 (antibody, V domains shown) VH: EVQLLESGGGLVQPGGSLRLSCAASGFTFSAYNMMWVRQAPGKGLEWVSRIYPSGGYTLYADSVKGRFTISRDNSKNTLYLQMNSLRAEDTAVYYCARQKLMIRAVRPFDYWGQGTLVTVSS VL: QSELTQPPSVSVSPAQTASITCSGDKLGDKYACWYQQKPGQSPVLVIYEDTKRPSGIPERFSGSNSGNTATLTISGTQVMDEADYYCQVWDSSTAVFGGGTKLTVLG
quantitativeResult: 27

## Task I am curious: what % Inhibition of JEG-3 cell invasion, 50 µg/ml (further test) value has been reported for D04 (antibody, human IgG4, V domains shown) VH: EVQLLESGGGLVQPGGSLRLSCAASGFTFSDYQMMWVRQAPGKGLEWVSRISPSGGMTRYADSVKGRFTISRDNSKNTLYLPMNSLRAEDTAVYYCARSGPYYFDYWGQGTLVTVSS VL: DIQMTQSPSSLSASVGDRVAITCRASQSIDTYLNWYQQKPGKAPKLLIYAASKLEDGVPSRFSGSGTGTDFTLTIRSLQPEDFASYFCQQSYSSPGITFGPGTKVEIKR ?
## Result 52

## Task I am curious: what % Inhibition of JEG-3 cell invasion, 50 µg/ml (further test) value has been reported for A11 (antibody, human IgG4, V domains shown) VH: EVQLLESGGGLVQPGGSLRLSCAASGFTFSWYTMMWVRQAPGKGLEWVSRISPSGGHTLYADSVKGRFTISRDNSZNTLYLQMNSLRAEDTAVYYCARDTWDDYYDSSGYYNDFDYWGQGTLVTVSS VL: QSALTQPPSVSLAPGQTARITCGGNNIGTKSVHWYQQKPGQAPVLVVYDDSDRPSGIPERFSGSNSGNTATLTISRVEAGDEADYYCQVWDSGSDHQVFGGGTKLTVLG ?
## Result 73
